Assay: Oral bioavailability in rat at 2 mg/kg
Format: ADME, organism-based
Condition Info: in vivo
Measured bioavailability, listed per entry.
Give just the number in %; leave the unit off.

Recorded bioavailability, per entry:
The compound identified as CCS(=O)(=O)CCN(C(=O)Cc1ccc(F)c(C(F)(F)F)c1)[C@H](C)c1nc2ccccn2c1-c1ccc(C#N)cc1 registered its bioavailability at 24

The compound identified as CCS(=O)(=O)CCN(C(=O)Cc1ccc(F)c(C(F)(F)F)c1)[C@H](C)c1nc2ccccn2c(=O)c1-c1ccc(C#N)cc1 registered its bioavailability at 24

The compound identified as CCS(=O)(=O)CCN(C(=O)Cc1ccc(F)c(C(F)(F)F)c1)[C@H](C)c1nc2ccccc2cc1-c1ccc(C#N)cc1 registered its bioavailability at 17

The compound identified as CCS(=O)(=O)CCN(C(=O)Cc1ccc(F)c(C(F)(F)F)c1)[C@H](C)c1nc2ncccc2c(=O)n1-c1ccc(C#N)cc1 registered its bioavailability at 47

---
The compound identified as CCS(=O)(=O)CCN(C(=O)Cc1ccc(F)c(C(F)(F)F)c1)[C@H](C)c1nc2ncccc2cc1-c1ccc(C#N)cc1 registered its bioavailability at 31

---

System Under Test: C-X-C chemokine receptor type 3 (Homo sapiens)
Assay: Displacement of [125I]IP-10 from CXCR3 receptor expressed in human PBMC in RPMI-1640 buffer supplemented with 0.5% BSA
Measured Property: pKi
pKi here is simply -log10 of the concentration when that concentration is written in mol/L.

The molecule identified as CCS(=O)(=O)CCN(C(=O)Cc1ccc(F)c(C(F)(F)F)c1)[C@H](C)c1nc2ccccn2c1-c1ccc(C#N)cc1 registered its pKi at 8.52

---

System Under Test: UniProtKB P49682
Sequence (P49682 whole entry): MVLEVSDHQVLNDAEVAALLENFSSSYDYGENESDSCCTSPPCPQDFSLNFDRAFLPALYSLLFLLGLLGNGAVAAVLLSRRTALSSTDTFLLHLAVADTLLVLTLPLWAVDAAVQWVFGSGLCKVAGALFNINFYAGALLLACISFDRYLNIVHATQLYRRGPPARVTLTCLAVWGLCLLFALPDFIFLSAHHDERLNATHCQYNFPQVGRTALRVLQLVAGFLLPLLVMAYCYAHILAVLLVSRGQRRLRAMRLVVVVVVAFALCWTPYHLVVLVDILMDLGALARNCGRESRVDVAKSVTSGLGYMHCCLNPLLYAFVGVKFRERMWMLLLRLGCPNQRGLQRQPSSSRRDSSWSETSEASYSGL
Assay: Displacement of [125I]IP-10 from CXCR3 receptor expressed in human PBMC in RPMI-1640 buffer supplemented with 0.5% BSA
Measured IC50, listed per entry.
Give just the number in nM; leave the unit off.

The molecule identified as CCS(=O)(=O)CCN(C(=O)Cc1ccc(F)c(C(F)(F)F)c1)[C@H](C)c1nc2ccccc2cc1-c1ccc(C#N)cc1 registered its IC50 at 0.8

The molecule identified as CCS(=O)(=O)CCN(C(=O)Cc1ccc(F)c(C(F)(F)F)c1)[C@H](C)c1nc2ccccc2n1-c1ccc(C#N)cc1 registered its IC50 at 6

The molecule identified as CCS(=O)(=O)CCN(C(=O)Cc1ccc(F)c(C(F)(F)F)c1)[C@H](C)c1nc2ncccc2cc1-c1ccc(C#N)cc1 registered its IC50 at 2

The molecule identified as CCS(=O)(=O)CCN(C(=O)Cc1ccc(F)c(C(F)(F)F)c1)[C@H](C)c1cc2ccccc2nc1-c1ccc(C#N)cc1 registered its IC50 at 5

The molecule identified as CCS(=O)(=O)CCN(C(=O)Cc1ccc(F)c(C(F)(F)F)c1)[C@H](C)c1nc2ccccc2nc1-c1ccc(C#N)cc1 registered its IC50 at 9

---
The molecule identified as CCS(=O)(=O)CCN(C(=O)Cc1ccc(F)c(C(F)(F)F)c1)[C@H](C)c1nn2ccccc2c1-c1ccc(C#N)cc1 registered its IC50 at 18

The molecule identified as CCS(=O)(=O)CCN(C(=O)Cc1ccc(F)c(C(F)(F)F)c1)[C@H](C)c1nc2c(c(=O)n1-c1ccc(C#N)cc1)CCCN2C registered its IC50 at 4
